Species on record: Rattus norvegicus
ASSAY COMMENT: Selectivity ratio for Wistar rat lenses ALR2 over Wistar rat kidney ALR1
Assay type: tissue-based
CONDITIONS USED: Lens of camera-type eye
Selectivity ratio below 7 gives false; Selectivity ratio at or above it gives true.

Would you please look over these solved cases?
[
  {
    "SMILES REPR": "O=C(O)Cn1c(=O)c(Sc2ccc(Br)cc2)nc2cc(Br)ccc21",
    "CATEGORY": "true"
  },
  {
    "SMILES REPR": "O=C(O)Cn1c(=O)c(Sc2ccc(Cl)cc2)nc2ccc(F)cc21",
    "CATEGORY": "false"
  },
  {
    "SMILES REPR": "O=C(O)Cn1c(=O)c(Oc2ccccc2)nc2ccccc21",
    "CATEGORY": "true"
  }
]

Exam item: decide whether the reported Selectivity ratio for O=C(O)Cn1c(=O)c(Sc2ccc(Cl)cc2)nc2ccccc21 is at least 7. false
